Listing of recorded GI50 by entry.
- Test system: SR
- EXPERIMENT_SUMMARY: NCI tumour cell line growth inhibition, 48 h
The source made the active and inactive calls. Rule as the data show it: active = GI50 up to about 1.1 µM and inactive = higher.
PROPERTY_MEASURED: GI50

molecule="CCOC(=O)C1=C(C)NC(C)=C(C(=O)OCCNC(=O)c2ccc(N=[N+]=[N-])cc2)C1c1ccccc1C(F)(F)F (stereo not drawn) [AZIDOPINE]" property_measured=GI50 measured="4.44 µM (inactive)"
molecule=CN(CCCNC(=O)c1nn(-c2ccc(Cl)cc2Cl)c2c1ccc1ccccc12)CCCNC(=O)c1nn(-c2ccc(Cl)cc2Cl)c2c1ccc1ccccc12 property_measured=GI50 measured="0.278 µM (active)"
molecule="COC(=O)/C=C/[C@H]1[C@H](C)N1S(=O)(=O)c1ccc(C)cc1 (stereo partly drawn)" property_measured=GI50 measured="31.6 µM (inactive)"
molecule="COC(=O)C1Cc2c([nH]c3ccccc23)C(c2ccccc2O)N1Cc1ccccc1 (stereo not drawn)" property_measured=GI50 measured="28.4 µM (inactive)"
molecule=CCOC(=O)/C=C/C(Br)=C(Br)/C=C/C(=O)OCC property_measured=GI50 measured="7.8 µM (inactive)"
molecule=O=C(Cc1ccccc1)N/N=C/c1ccccc1O property_measured=GI50 measured="5.52 µM (inactive)"
molecule="NC(CCSCC(F)(F)F)C(=O)O (stereo not drawn)" property_measured=GI50 measured="> 100 µM (inactive)"
molecule=Cc1cc(C)nc(NS(=O)(=O)c2ccc(NC(=O)c3cc([N+](=O)[O-])cc([N+](=O)[O-])c3)cc2)n1 property_measured=GI50 measured="0.0755 µM (active)"
molecule=FC(F)(F)c1cccnc1Sc1nc2ccccc2s1 property_measured=GI50 measured="30.9 µM (inactive)"
molecule=Cn1cnc2[nH]c(=O)[nH]c(=S)c21 property_measured=GI50 measured="> 100 µM (inactive)"
molecule="COc1c(O)cc2c(c1O)C(=O)C(Cc1ccc(O)cc1)CO2 (stereo not drawn)" property_measured=GI50 measured="24.9 µM (inactive)"
molecule="O=C1CC(=O)NC(NN2C(=O)CSC2c2ccc(Cl)cc2)=N1 (stereo not drawn)" property_measured=GI50 measured="39.2 µM (inactive)"
molecule=O=c1n(CCCN2CCOCC2)nc2n1-c1ccc3ccccc3c1SC2 property_measured=GI50 measured="71.6 µM (inactive)"
molecule=Nc1ccc(-c2nc3ccccc3s2)cc1CO property_measured=GI50 measured="> 84.3 µM (inactive)"
molecule="COc1cc(C2c3cc4c(cc3OC(O)C2C)OCO4)cc(OC)c1OC (stereo not drawn)" property_measured=GI50 measured="0.2 µM (active)"
molecule="Nc1ccccc1SC(C[N+](=O)[O-])c1ccc2c(c1)OCO2 (stereo not drawn)" property_measured=GI50 measured="1.91 µM (inactive)"
molecule=Nc1nnc2ccc(Cl)cc2[n+]1[O-] property_measured=GI50 measured="46.3 µM (inactive)"
molecule="Cc1ccc(S(=O)(=O)NC(=O)NC(CO)C(=O)O)cc1 (stereo not drawn)" property_measured=GI50 measured="> 100 µM (inactive)"
molecule="CC1(CCCO)CCCCCC(C)(CCCO)C1=O (stereo not drawn)" property_measured=GI50 measured="> 100 µM (inactive)"
molecule="COC1OC(Cn2cc([N+](=O)[O-])nc2C)C(O)C(O)C1O (stereo not drawn)" property_measured=GI50 measured="> 100 µM (inactive)"
molecule=Cc1ccc2nc3c(C)cc(=O)cc-3sc2c1 property_measured=GI50 measured="19.1 µM (inactive)"
molecule="Cc1cccc(C(O)c2cccnc2)c1O (stereo not drawn)" property_measured=GI50 measured="> 100 µM (inactive)"
molecule="Cc1nc2c3c(ncn2n1)Oc1c(c(-c2ccccc2)nn1-c1ccccc1)C3c1ccc(Cl)cc1 (stereo not drawn)" property_measured=GI50 measured="45.1 µM (inactive)"
